target: human M2 receptor (Homo sapiens, UniProt P08172); details: Receptor activity EC50, M2-GIRK1/4 activation test, acetylcholine at EC20; allosteric potency; in some cases mean values from two or more determinations
measured-parameter: EC50 (nM)

Completed entries (count: 3):
compound	EC50 [nM]
CC[C@@H](NC(=O)c1cn(-c2ccc(F)cc2F)c2nc(NCC(F)(F)F)ccc2c1=O)C(F)(F)F [Example 94]	164
O=C(N[C@H](c1ccccc1Cl)C(F)(F)F)c1cn(-c2ccc(F)cc2F)c2nc(N3CCCC(O)C3=O)ccc2c1=O (single isomer, unassigned) [Example 209]	163
CC[C@@H](NC(=O)c1cn(-c2ccc(F)cc2F)c2nc(N3CCCC3=O)ccc2c1=O)C(F)(F)F [Example 337]	36

(A) O=C(NC(c1ccccc1Cl)C(F)(F)F)c1cn(-c2ccccc2F)c2nc(N3CCC(O)C3=O)ccc2c1=O (racemic) [Example 287]
(B) O=C(NC12CC3CC(CC(C3)C1)C2)c1cn(-c2ccc(F)cc2F)c2nc(N3CCNC3=O)ccc2c1=O [Example 186]
(C) O=C(NC(COC(F)(F)F)c1ccccc1)c1cn(-c2ccc(F)cc2F)c2nc(N3C[C@@H](O)CC3=O)ccc2c1=O (mixture of isomers) [Example 233]
Place the items in sequence of falling EC50. Put the labels in the order asked and list them.
A, C, B
(A: 145 nM, C: 57 nM, B: 30 nM)

----------
target: human M2 receptor (Homo sapiens, UniProt P08172); conditions: Receptor activity EC50, allosteric potency at EC20 acetylcholine; M2-GIRK1/4 reporter cells; in some cases mean of two or more determinations
measured-parameter: EC50 (µM)

Completed entries (count: 3):
molecule	EC50 (µM)
O=C(NC(CC(F)(F)F)C(F)(F)F)c1cn(-c2c(F)cc(F)cc2F)c2nc(N3C[C@@H](O)CC3=O)ccc2c1=O (single isomer, unassigned) [Example 607]	0.005
CC(C)(CC(F)(F)F)NC(=O)c1cn(-c2c(F)cc(F)cc2F)c2nc(N3CC(O)C4(CC4)C3)ccc2c1=O (single isomer, unassigned) [Example 571]	0.012
CCC1CCN(c2ccc3c(=O)c(C(=O)N[C@@H](C4CC4)C(F)(F)F)cn(-c4c(F)cc(F)cc4F)c3n2)C(=O)N1 (single isomer, unassigned) [Example 448]	0.019

(P) CC[C@H](NC(=O)c1cn(-c2c(F)cc(F)cc2Cl)c2nc(N3CCC(C)C3=O)ccc2c1=O)C(F)(F)F (single isomer, unassigned) [Example 424]
(Q) CCC(COC(F)(F)F)NC(=O)c1cn(-c2c(F)cc(F)cc2F)c2nc(N3CCNC3=O)ccc2c1=O (racemic) [Example 609]
(R) CCC(NC(=O)c1cn(-c2c(F)cc(F)cc2F)c2nc(N3C[C@@H](O)CC3=O)ccc2c1=O)C(F)(F)C(F)(F)F (mixture of isomers) [Example 519]
(S) O=C(NC(CC(F)(F)F)C(F)(F)F)c1cn(-c2c(F)cc(F)cc2F)c2nc(N3CCNC3=O)ccc2c1=O (racemic) [Example 587]
(T) CC[C@@H](NC(=O)c1cn(-c2ccc(F)cc2F)c2nc(N3C[C@@H](O)[C@H](O)C3)ccc2c1=O)C(F)(F)F
Place the items in sequence of falling EC50. Put the labels in the order asked and list them.
T, Q, S, P, R

(A) COC1(C)CN(c2ccc3c(=O)c(C(=O)N[C@H](C4CC4)C(F)(F)F)cn(-c4c(F)cc(F)cc4F)c3n2)C1
(B) CC[C@H](NC(=O)c1cn(-c2c(F)cc(F)cc2F)c2nc(N3C[C@@H](C)NC3=O)ccc2c1=O)C(F)(F)F
// which entry has the larger EC50 value, A or B ? Returns: label corresponding to the selected item.
A
(A: 0.025 µM, B: 0.009 µM)

(1) CC(NC(=O)c1cn(-c2c(F)cc(F)cc2F)c2nc(N3C[C@@H](O)CC3=O)ccc2c1=O)C(F)(F)C(F)(F)F (single isomer, unassigned) [Example 531]
(2) CO[C@@H]1CN(c2ccc3c(=O)c(C(=O)N[C@@H](C4CC4)C(F)(F)F)cn(-c4c(F)cc(F)cc4F)c3n2)C[C@H]1O (single isomer, unassigned) [Example 584]
// which entry has the larger EC50 value, 1 or 2 ? Returns: label corresponding to the selected item.
2
(2: 0.016 µM, 1: 0.009 µM)

----------
Molecular target: human M2 receptor (Homo sapiens)
Sequence (P08172 1-466): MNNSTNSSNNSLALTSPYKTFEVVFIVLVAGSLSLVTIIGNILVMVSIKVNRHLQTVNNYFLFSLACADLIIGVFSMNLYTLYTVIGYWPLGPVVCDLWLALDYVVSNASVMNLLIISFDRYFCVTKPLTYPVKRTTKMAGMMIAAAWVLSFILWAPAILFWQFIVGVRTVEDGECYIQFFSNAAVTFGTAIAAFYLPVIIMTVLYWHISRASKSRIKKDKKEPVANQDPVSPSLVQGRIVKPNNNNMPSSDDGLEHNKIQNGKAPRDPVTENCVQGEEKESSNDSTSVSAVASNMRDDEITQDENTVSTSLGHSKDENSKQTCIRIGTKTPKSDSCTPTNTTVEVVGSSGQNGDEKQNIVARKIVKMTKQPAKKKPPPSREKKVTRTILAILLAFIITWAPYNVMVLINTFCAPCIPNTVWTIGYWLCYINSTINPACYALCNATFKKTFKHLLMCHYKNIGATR
Conditions: read-out: Efficiency, boosting of the acetylcholine effect at EC20 acetylcholine concentration; M2-GIRK1/4 reporter cells
measured-parameter: Emax (%)

compound	measurement-unit	Emax
O=C(Nc1c(Cl)cccc1Cl)c1cn(-c2ccc(F)cc2F)c2nc(N3C[C@@H](O)[C@H](O)C3)ccc2c1=O	%	86
COC(=O)N1CCN(c2ccc3c(=O)c(C(=O)NC45CC(C4)C5)cn(-c4c(F)cc(F)cc4F)c3n2)CC1	%	93.8
CC(C)C(NC(=O)c1cn(-c2c(F)cc(F)cc2F)c2nc(N3C[C@@H](O)CC3=O)ccc2c1=O)C(F)(F)F (single isomer, unassigned) [Example 527]	%	100
C[C@@H]1CN(c2ccc3c(=O)c(C(=O)NC(C)(C)CC(F)(F)F)cn(-c4c(F)cc(F)cc4F)c3n2)C(=O)N1	%	82

----------
Molecular target: human M2 receptor (Homo sapiens, UniProt P08172)
Sequence (P08172 1-466): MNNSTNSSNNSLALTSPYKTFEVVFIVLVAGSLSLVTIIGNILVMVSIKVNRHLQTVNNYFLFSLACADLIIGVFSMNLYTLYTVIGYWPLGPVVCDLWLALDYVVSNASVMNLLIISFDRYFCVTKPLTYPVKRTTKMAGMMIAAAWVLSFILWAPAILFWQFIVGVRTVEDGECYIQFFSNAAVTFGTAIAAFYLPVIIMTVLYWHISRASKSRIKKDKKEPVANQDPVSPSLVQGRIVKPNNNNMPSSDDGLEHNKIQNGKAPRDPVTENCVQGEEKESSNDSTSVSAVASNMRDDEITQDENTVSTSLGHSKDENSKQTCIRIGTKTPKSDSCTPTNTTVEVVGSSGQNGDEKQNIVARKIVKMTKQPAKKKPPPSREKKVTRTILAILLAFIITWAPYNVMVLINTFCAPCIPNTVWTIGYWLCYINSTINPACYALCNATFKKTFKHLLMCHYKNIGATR
Conditions: Receptor activity EC50, allosteric potency at EC20 acetylcholine; M2-GIRK1/4 reporter cells; in some cases mean of two or more determinations
pEC50: −log10 of the molar value.
measured-parameter: pEC50

Completed entries (count: 5):
molecule	target-under-test	pEC50
NC(=O)N1CCN(c2ccc3c(=O)c(C(=O)Nc4c(Cl)cccc4Cl)cn(-c4c(F)cc(F)cc4F)c3n2)CC1 [Example 636]	human M2 receptor (Homo sapiens, UniProt P08172)	7.22
CC[C@@H](NC(=O)c1cn(-c2c(F)cc(F)cc2Cl)c2nc(N3C[C@@H](O)CC3=O)ccc2c1=O)C(F)(F)F [Example 407]	human M2 receptor (Homo sapiens, UniProt P08172)	8.15
CCN1CCCN(c2ccc3c(=O)c(C(=O)N[C@@H](C4CC4)C(F)(F)F)cn(-c4c(F)cc(F)cc4F)c3n2)C1=O [Example 539]	human M2 receptor (Homo sapiens, UniProt P08172)	8.15
O=C(N[C@@H](C1CC1)C(F)(F)F)c1cn(-c2c(F)cc(F)cc2F)c2nc(N(CCO)CCO)ccc2c1=O [Example 664]	human M2 receptor (Homo sapiens, UniProt P08172)	7.00
O=C(NC1(CC(F)(F)F)CC1)c1cn(-c2c(F)cc(F)cc2F)c2nc(N3C[C@@H](O)[C@H](O)C3)ccc2c1=O [Example 635]	human M2 receptor (Homo sapiens, UniProt P08172)	7.23

(P) CC(C)(NC(=O)c1cn(-c2c(F)cc(F)cc2F)c2nc(N3C[C@@H](O)CC3=O)ccc2c1=O)C(F)F [Example 516]
(Q) CC[C@@H](NC(=O)c1cn(-c2c(F)cccc2F)c2nc(N3C[C@@H](O)[C@@H](O)C3)ccc2c1=O)C(F)(F)F [Example 648]
// which entry has the larger pEC50 value, P or Q ? Returns: label corresponding to the selected item.
P
(P: 7.70, Q: 7.09)
